Data provenance is the supplement of paper PMC12855868.

B1: library; numbered along this chain (parent)
chain: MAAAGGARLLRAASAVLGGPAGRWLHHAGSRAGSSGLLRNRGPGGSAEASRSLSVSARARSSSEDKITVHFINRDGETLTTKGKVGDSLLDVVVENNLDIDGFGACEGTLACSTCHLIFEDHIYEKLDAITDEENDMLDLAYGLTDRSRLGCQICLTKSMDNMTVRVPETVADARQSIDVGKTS

Variants of: B1
experiment: scaled log2 fold change in cell abundance, elesclomol vs control (0 = silent mean, 1 = nonsense mean) (scaled log2 ratio); higher = higher viability under elesclomol (loss of FDX1 cuproptosis function);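 further: variant abundance is its share of total variant reads in each endpoint sample, from next-generation sequencing of the integrated ORF PCR-amplified out of genomic DNA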
experimentalSetup: with ABC1 FDX1 KO; elesclomol 5 nM; glucose 10 mM; 14 days
assayMetric: scaled log2 fold change
Answer using only a numeral; do not append any unit.

**Q:** Answer with the recorded scaled log2 fold change of L38K only.
**A:** -0.0234

**Q:** Supply reported scaled log2 fold change belonging to this variant: D146E
**A:** 0.138

**Q:** Fill in reported scaled log2 fold change for this entry: D91W
**A:** 0.0916

**Q:** Give scaled log2 fold change for the following variant: G86S
**A:** 0.0131

**Q:** Give the reported value of scaled log2 fold change for this record: S148V
**A:** 0.0179

**Q:** In one line, give reported scaled log2 fold change of the entry V171A .
**A:** -0.586

**Q:** Return value of scaled log2 fold change for input S148G , no commentary.
**A:** -0.0749

**Q:** Let me know recorded scaled log2 fold change for L156H , thanks.
**A:** 1.07

**Q:** Give scaled log2 fold change for the following variant: M160Q
**A:** 0.0622

**Q:** Respond only with scaled log2 fold change recorded for A105W
**A:** -0.156

**Q:** Report scaled log2 fold change for S35W
**A:** -0.0127
